# maps each entry to its normalised viability
test system: HCC1599; assay: normalised viability (% of control), CellTiter-Blue; higher = more viable cells (about 100 = DMSO control); conditions: 100 nM; incubation time: 72 h
observation-type: normalised viability (%)

* C[C@H]1C[C@@H]2[C@H]([C@@H](O)C[C@@]3(C)[C@H]2CC[C@]3(O)C(=O)CO)[C@@]2(C)C=CC(=O)C=C12 | 108
* CC1=C(/C=C/C(C)=C/C=C/C(C)=C/C(=O)O)C(C)(C)CCC1 | 92.2
* Oc1ncc(N(CCCl)CCCl)c(O)n1 | 83.5
* O=C(O)C(=O)O.[NH-][C@@H]1CCCC[C@H]1[NH-].[Pt+2] | 96.1
* C1CN1c1nc(N2CC2)nc(N2CC2)n1 | 106
* O=C(O)C1(C(=O)O)CCC1.[NH2-].[NH2-].[Pt+2] | 92.8

Source: the supplement of paper PMC4862054
